assay.system: T1, phosphodiesterase-δ (PDEδ) (UniProt O43924 1-150)
T1 construct: also called His6-MBP-tev-PDEδ; source: E. coli, purified
T1 sequence (O43924 whole entry, stated change not applied): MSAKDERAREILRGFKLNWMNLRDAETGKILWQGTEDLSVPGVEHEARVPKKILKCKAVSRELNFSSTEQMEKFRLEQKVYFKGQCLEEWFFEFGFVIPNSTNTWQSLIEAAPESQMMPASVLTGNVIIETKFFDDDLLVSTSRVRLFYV
assay.notes: ITC; 1 mM KRAS4a(167–186)HVR-FMe peptide in the syringe, 200 μM PDEδ in the cell; 25°C; 20 mM Hepes pH 7.3, 150 mM NaCl, 5 mM MgCl2, 1 mM TCEP; single binding site model
condition.summary: both partners purified
No end group written: not given here. *: point of attachment. Farnesyl = CC(C)=CCC/C(C)=C/CC/C(C)=C/C*
measured.endpoint: Kd (µM)
# value in µM; strip the unit string

Measured Kd, RLKKISKEEKTPGCVKIKKC(Farnesyl)-OMe (peptide, UniProt P01116-1 167-186, looked up, KRAS splice variant KRAS4a, hypervariable region, residues 167 to 186 (20-mer ending at the prenylated cysteine); also called prenylated 20-residue KRAS4a HVR peptide; KRAS4a-HVR peptide; source: synthetic peptide, bought: AnaSpec Peptides Inc) [KRAS4a(167–186)HVR-FMe peptide] : 27
